Below, each of the compounds is paired with its reported TGI value.
- Tested on: CCRF-CEM leukemia
- testMethodNotes: NCI tumour cell line growth inhibition, 48 h

{"compound": "N#Cc1c(NC(=O)C(F)(F)F)sc2c3c(=O)c4ccccc4c(=O)c=3oc3ccccc3c12", "qualifierOperator": "=", "TGI (µM)": 12.5}
{"compound": "Cc1cc(Cl)nc(N(CCNc2ccnc3cc(Cl)ccc23)Cc2ccco2)n1", "qualifierOperator": "=", "TGI (µM)": 5.04}
{"compound": "NNC(=O)C(=O)NN=C(C(Cl)(Cl)CO)C(Cl)(Cl)CO", "qualifierOperator": "=", "TGI (µM)": 61.2}
{"compound": "C=CCN(CC=C)C(=O)c1cc(C)nc2c1c(=O)n(-c1ccccc1)c(=O)n2CCCN1CCN(c2ccccc2OC)CC1", "qualifierOperator": ">", "TGI (µM)": 50}
{"compound": "COc1cc2nc(Cl)nc(NS(=O)(=O)c3cc4ccccc4s3)c2cc1OC", "qualifierOperator": "=", "TGI (µM)": 33}
{"compound": "O=C1c2cc(O)c(O)cc2O[C@H](c2ccc(O)c(O)c2)[C@H]1O", "qualifierOperator": ">", "TGI (µM)": 100}
{"compound": "CC12OC(=O)C(C#N)C1(C)C1C(=O)CCCC12 (stereo unspecified)", "qualifierOperator": ">", "TGI (µM)": 100}
{"compound": "Cc1ccc(OCC2OC(n3cnc4c(Cl)nc(Nc5cc(Cl)cc(Cl)c5)nc43)CC2Oc2ccc(C)cc2)cc1 (stereo unspecified)", "qualifierOperator": ">", "TGI (µM)": 100}
{"compound": "NC(N)=NCCCC(NCc1c2ccccc2nc2ccccc12)C(=O)O (stereo unspecified)", "qualifierOperator": "=", "TGI (µM)": 75.1}
{"compound": "Cc1cc(C)c(-c2no/c(=N\\S(=O)(=O)c3ccc(Cl)cc3)o2)c(C)c1", "qualifierOperator": ">", "TGI (µM)": 100}
{"compound": "C[C@@H]1CC[C@]2(C)C3(C)CC[C@]2(OC3=O)[C@@]12CC(c1ccoc1)OC2=O (stereo partly specified)", "qualifierOperator": "=", "TGI (µM)": 65.9}
{"compound": "C1CCC(N=C2N(C3CCCCC3)C(=NC3CCCCC3)N2C2CCCCC2)CC1", "qualifierOperator": ">", "TGI (µM)": 100}
{"compound": "COc1ccc(-c2cc(/C=C/C(=O)c3ccc(N)cc3)[nH]n2)cc1OC", "qualifierOperator": "=", "TGI (µM)": 7.81}
{"compound": "COCCN(Cc1ccc(F)cc1)c1ccc(CO)c(Cl)c1", "qualifierOperator": ">", "TGI (µM)": 100}
{"compound": "COc1ccc(/C=C2\\C(=O)N(NC(C)=O)c3ccccc32)cc1", "qualifierOperator": ">", "TGI (µM)": 100}
{"compound": "CN1C(=O)CC(=O)N1/C(=C/c1ccccc1)c1ccccc1", "qualifierOperator": "=", "TGI (µM)": 54.3}
{"compound": "Cc1nc2sc3cccc(Cl)c3n2c(=O)c1N=Nc1ccc(Cl)cc1", "qualifierOperator": ">", "TGI (µM)": 100}
{"compound": "O=C(O)CCCc1ccc2c(c1)CC1(C2)Cc2cc3c(cc2C1)CCCC3", "qualifierOperator": "=", "TGI (µM)": 27.9}
{"compound": "O=C(COc1ccc(/C=C2\\Oc3ccccc3C2=O)cc1)Nc1nc2ccccc2s1", "qualifierOperator": "=", "TGI (µM)": 0.332}
{"compound": "CNCc1ccc(-c2cc(-c3nc(-c4ccc(S(=O)(=O)C(C)C)cc4)cnc3N)on2)cc1", "qualifierOperator": "=", "TGI (µM)": 3.42}
{"compound": "Cc1c(C)c(S(=O)(=O)N(CCCCN)OCCCN)c(C)c2c1OC(C)(C)CC2", "qualifierOperator": "=", "TGI (µM)": 98.3}
